study_target: natural β-amyloid peptide β-AP1-40 (human)
Sequence (peptide, as listed by the source): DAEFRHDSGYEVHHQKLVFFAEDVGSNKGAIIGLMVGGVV
assay_protocol: cell-based or functional assay
measurement_label: % Inhibition of Plateau; nucleation assay; 100 mole % (%)

> print(dat)
                                 binder  value.units  experimental.value
1  EVHHQKLVFFAEDVG [unmodified Aβ11-25]            %                  47
2   DAEFRHDSGYEVHHQ [unmodified Aβ1-15]            %                  18
3   HDSGYEVHHQKLVFF [unmodified Aβ6-20]            %                  76

Sourced from patent US7658917
